Field: viability, T/C. Provide a value for each of the compounds that follow.
test system: KRAS patient-derived spheroids with HUVEC/MSC, viability; assay: Anticancer human tumor 519858-162-T-J1-PDC patient-derived colon adenocarcinoma cell line growth inhibition [KRAS2]; settings: second compound 10 µM; first compound 3.16 µM; hits give low values
Form entry: value (%) — number only.

Q: Please tell me the measured viability, T/C for CC(C)NCC(C(=O)N1CCN(c2ncnc3c2C(C)CC3O)CC1)c1ccc(Cl)cc1 (configuration not stated) + C=CC(=O)N1CCN(c2nc(=O)n(-c3c(C)ccnc3C(C)C)c3nc(-c4c(O)cccc4F)c(F)cc23)C(C)C1 ; system: KRAS patient-derived spheroids with HUVEC/MSC, viability.
Result: 90.8

Q: Give measured viability, T/C for CC(=O)OC12COC1CC(O)C1(C)C(=O)C(O)C3=C(C)C(OC(=O)C(O)C(NC(=O)OC(C)(C)C)c4ccccc4)CC(O)(C(OC(=O)c4ccccc4)C21)C3(C)C (configuration not stated) + C=CC(=O)N1CCN(c2nc(=O)n(-c3c(C)ccnc3C(C)C)c3nc(-c4c(O)cccc4F)c(F)cc23)C(C)C1 (KRAS patient-derived spheroids with HUVEC/MSC, viability).
Result: 69.3

----------
test system: KRAS patient-derived spheroids with HUVEC/MSC, viability; assay: Anticancer human tumor 519858-162-T-J1-PDC cell line growth inhibition [KRAS2]; settings: second compound 1 µM; first compound 0.316 µM; hits give low values;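 also: compound exposure lasted seven days before readout; 100% = DMSO vehicle control viability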
READOUT: viability, T/C (%)
Record the value in %, omitting the unit from your answer.

Q: State its viability, T/C: CC1COCCN1c1cc(-c2ccnn2C)c2ccnc(-c3ccn[nH]3)c2n1 (stereo not given) + COc1cc2nc(C)nc(NC(C)c3cc(N)cc(C(F)(F)F)c3)c2cc1OC1CCOC1
Result: 53.7

Q: Check the records and state viability, T/C for CC1(C)CCC(CN2CCN(c3ccc(C(=O)NS(=O)(=O)c4ccc(NCC5CCOCC5)c([N+](=O)[O-])c4)c(Oc4cnc5[nH]ccc5c4)c3)CC2)=C(c2ccc(Cl)cc2)C1 + COc1cc2nc(C)nc(NC(C)c3cc(N)cc(C(F)(F)F)c3)c2cc1OC1CCOC1
Result: 98.9

Q: Dear colleague, please send me the reported viability, T/C for COc1cc2nccc(Oc3ccc(NC(=O)C4(C(=O)Nc5ccc(F)cc5)CC4)cc3)c2cc1OC + CNCc1ccccc1-c1csc(C(C)Nc2nc(C)nc3cc(OC)c(OC)cc23)c1 when you can.
Result: 61.6

Q: Check the records and state viability, T/C for COc1cc2nccc(Oc3ccc(NC(=O)C4(C(=O)Nc5ccc(F)cc5)CC4)cc3)c2cc1OC + C=CC(=O)N1CCN(c2nc(=O)n(-c3c(C)ccnc3C(C)C)c3nc(-c4c(O)cccc4F)c(F)cc23)C(C)C1
Result: 91.7

Q: For the compound CC1(C)CCC(CN2CCN(c3ccc(C(=O)NS(=O)(=O)c4ccc(NCC5CCOCC5)c([N+](=O)[O-])c4)c(Oc4cnc5[nH]ccc5c4)c3)CC2)=C(c2ccc(Cl)cc2)C1 + CC1OCC2(CCN(c3cnc(Sc4ccnc(N)c4Cl)c(N)n3)CC2)C1N , give its reported viability, T/C.
Result: 42.8

----------
test system: KRAS patient-derived spheroids with HUVEC/MSC, viability; assay: Anticancer human tumor 519858-162-T-J1-PDC cell line growth inhibition [KRAS2]; details: second compound 1 µM; first compound 0.316 µM; hits give low values;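 also: compound exposure lasted seven days before readout; 100% = DMSO vehicle control viability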
READOUT: viability, T/C (%)
Enter your answer as a number in %; do not include the unit.

Q: Return value of viability, T/C for input CC(=O)OC12COC1CC(O)C1(C)C(=O)C(O)C3=C(C)C(OC(=O)C(O)C(NC(=O)OC(C)(C)C)c4ccccc4)CC(O)(C(OC(=O)c4ccccc4)C21)C3(C)C (centres undefined) + CC1OCC2(CCN(c3cnc(Sc4ccnc(N)c4Cl)c(N)n3)CC2)C1N , no commentary.
Result: 81.8

Q: Indicate its recorded viability, T/C; the compound in question is CC1(C)CCC(CN2CCN(c3ccc(C(=O)NS(=O)(=O)c4ccc(NCC5CCOCC5)c([N+](=O)[O-])c4)c(Oc4cnc5[nH]ccc5c4)c3)CC2)=C(c2ccc(Cl)cc2)C1 + C=CC(=O)N1CCN(c2nc(=O)n(-c3c(C)ccnc3C(C)C)c3nc(-c4c(O)cccc4F)c(F)cc23)C(C)C1
Result: 94.7

Q: State its viability, T/C: O=C(c1cc(Cc2n[nH]c(=O)c3ccccc23)ccc1F)N1CCN(C(=O)C2CC2)CC1 + CC1OCC2(CCN(c3cnc(Sc4ccnc(N)c4Cl)c(N)n3)CC2)C1N
Result: 68.3

Q: Determine from records and report viability, T/C for CC1(C)CCC(CN2CCN(c3ccc(C(=O)NS(=O)(=O)c4ccc(NCC5CCOCC5)c([N+](=O)[O-])c4)c(Oc4cnc5[nH]ccc5c4)c3)CC2)=C(c2ccc(Cl)cc2)C1 + CNCc1ccccc1-c1csc(C(C)Nc2nc(C)nc3cc(OC)c(OC)cc23)c1
Result: 84.5

Q: Recall and state the measured viability, T/C for CC1OCC2(CCN(c3cnc(Sc4ccnc(N)c4Cl)c(N)n3)CC2)C1N (centres undefined) + C=CC(=O)N1CCN(c2nc(=O)n(-c3c(C)ccnc3C(C)C)c3nc(-c4c(O)cccc4F)c(F)cc23)C(C)C1 .
Result: 84.3

Q: Let me know recorded viability, T/C for Cn1nccc1Nc1nccc(-c2cc3c(s2)C(C)(C)N(CCN2CCOCC2)C3=O)n1 + C=CC(=O)N1CCN(c2nc(OCC3CCCN3C)nc3c2CCN(c2cccc4cccc(C)c24)C3)CC1CC#N , thanks.
Result: 54

Q: Answer with reported viability, T/C of COC(=O)c1ccc2c(C(=Nc3ccc(N(C)C(=O)CN4CCN(C)CC4)cc3)c3ccccc3)c(O)[nH]c2c1 + COc1cc2nc(C)nc(NC(C)c3cc(N)cc(C(F)(F)F)c3)c2cc1OC1CCOC1
Result: 55.1

Q: Return viability, T/C (reported value) for this compound: CCN1CCN(Cc2ccc(Nc3ncc(F)c(-c4cc(F)c5nc(C)n(C(C)C)c5c4)n3)nc2)CC1 + C=CC(=O)N1CCN(c2nc(=O)n(-c3c(C)ccnc3C(C)C)c3nc(-c4c(O)cccc4F)c(F)cc23)C(C)C1
Result: 72.8

Q: Please give the documented viability, T/C of CC(C)NCC(C(=O)N1CCN(c2ncnc3c2C(C)CC3O)CC1)c1ccc(Cl)cc1 (centres undefined) + CC1OCC2(CCN(c3cnc(Sc4ccnc(N)c4Cl)c(N)n3)CC2)C1N
Result: 58.7

Q: In one line, give reported viability, T/C of the entry Cn1nccc1Nc1nccc(-c2cc3c(s2)C(C)(C)N(CCN2CCOCC2)C3=O)n1 + C=CC(=O)N1CCN(c2nc(=O)n(-c3c(C)ccnc3C(C)C)c3nc(-c4c(O)cccc4F)c(F)cc23)C(C)C1 .
Result: 63.8

Q: Consider the compound CC(=O)OC12COC1CC(O)C1(C)C(=O)C(O)C3=C(C)C(OC(=O)C(O)C(NC(=O)OC(C)(C)C)c4ccccc4)CC(O)(C(OC(=O)c4ccccc4)C21)C3(C)C (centres undefined) + COc1cc2nc(C)nc(NC(C)c3cc(N)cc(C(F)(F)F)c3)c2cc1OC1CCOC1 . State its measured viability, T/C.
Result: 89.8

Q: Name the recorded viability, T/C of the compound listed here: COC(=O)c1ccc2c(C(=Nc3ccc(N(C)C(=O)CN4CCN(C)CC4)cc3)c3ccccc3)c(O)[nH]c2c1 + C=CC(=O)N1CCN(c2nc(=O)n(-c3c(C)ccnc3C(C)C)c3nc(-c4c(O)cccc4F)c(F)cc23)C(C)C1
Result: 111

Q: Tell me its viability, T/C given COc1cc(Nc2ncc3c(n2)-c2ccc(Cl)cc2C(c2c(F)cccc2OC)=NC3)ccc1C(=O)O + COc1cc2nc(C)nc(NC(C)c3cc(N)cc(C(F)(F)F)c3)c2cc1OC1CCOC1 as the entry.
Result: 76.6

Q: # return recorded viability, T/C for entry CC1OCC2(CCN(c3cnc(Sc4ccnc(N)c4Cl)c(N)n3)CC2)C1N (centres undefined) + C=CC(=O)N1CCN(c2nc(OCC3CCCN3C)nc3c2CCN(c2cccc4cccc(C)c24)C3)CC1CC#N
Result: 62.2

Q: Provide only the value of recorded viability, T/C for CC1COCCN1c1cc(-c2ccnn2C)c2ccnc(-c3ccn[nH]3)c2n1 (centres undefined) + C=CC(=O)N1CCN(c2nc(OCC3CCCN3C)nc3c2CCN(c2cccc4cccc(C)c24)C3)CC1CC#N
Result: 58.6

Q: Please indicate viability, T/C recorded for CC(=O)OC12COC1CC(O)C1(C)C(=O)C(O)C3=C(C)C(OC(=O)C(O)C(NC(=O)OC(C)(C)C)c4ccccc4)CC(O)(C(OC(=O)c4ccccc4)C21)C3(C)C (centres undefined) + CNCc1ccccc1-c1csc(C(C)Nc2nc(C)nc3cc(OC)c(OC)cc23)c1
Result: 106

Q: Please give the documented viability, T/C of CCNC(=O)CC1N=C(c2ccc(Cl)cc2)c2cc(OC)ccc2-n2c(C)nnc21 (centres undefined) + C=CC(=O)N1CCN(c2nc(=O)n(-c3c(C)ccnc3C(C)C)c3nc(-c4c(O)cccc4F)c(F)cc23)C(C)C1
Result: 70.4

Q: Entry Cn1nccc1Nc1nccc(-c2cc3c(s2)C(C)(C)N(CCN2CCOCC2)C3=O)n1 + CNCc1ccccc1-c1csc(C(C)Nc2nc(C)nc3cc(OC)c(OC)cc23)c1 needs its viability, T/C filled in; supply it.
Result: 74.3

Q: Fill in viability, T/C for record CC(=O)OC12COC1CC(O)C1(C)C(=O)C(O)C3=C(C)C(OC(=O)C(O)C(NC(=O)OC(C)(C)C)c4ccccc4)CC(O)(C(OC(=O)c4ccccc4)C21)C3(C)C (centres undefined) + C=CC(=O)N1CCN(c2nc(OCC3CCCN3C)nc3c2CCN(c2cccc4cccc(C)c24)C3)CC1CC#N
Result: 73.2
